Sourced from ChEMBL document CHEMBL4483862

Tested on: Plasmodium berghei
ASSAY_INFO: Luciferase/luciferin-expressing antifolate-resistant parasites were used to infect a culture of HepG2 cells that were pre-incubated with compounds. Infected hepatocytes emit light due to the luciferase reaction. Assay results are presented as the percent inhibition of light emission compared to control. […]
Format: functional
PARTICULARS: sporozoite, PBLUC_HILL_SLOPE 7.85, PBLUC_R_SQUARED 0.611, read-out: LUCIFERASE INFECTION ASSAY - IC50
ENDPOINT: pIC50
Here pIC50 is given on a logarithmic scale as minus log10 of the concentration in mol/L.

QUERY: Param item = "CCOC(=O)c1[nH]c(CN2CCN(c3ccccc3)CC2)c(C(=O)OCC)c1C" ; retrieve measured pIC50.
RESULT: 5.08

* * *

System: Plasmodium berghei
ASSAY_INFO: Luciferase/luciferin-expressing antifolate-resistant parasites were used to infect a culture of HepG2 cells that were pre-incubated with compounds. Infected hepatocytes emit light due to the luciferase reaction. Assay results are presented as the percent inhibition of light emission compared to control. […]
Format: functional
PARTICULARS: sporozoite, HEPG2TOX_HILL_SLOPE 3.8, HEPG2TOX_R_SQUARED 0.813, PBLUC_HILL_SLOPE 18.3, PBLUC_R_SQUARED 0.305, read-out: LUCIFERASE INFECTION ASSAY - IC50
ENDPOINT: IC50 (µM)
Provide the reading as a plain figure in µM.

QUERY: Param item = "COc1ccc(O)c(/C=N/Nc2ncc(C(F)(F)F)cc2Cl)c1" ; retrieve measured IC50.
RESULT: 3.31

* * *

System: Plasmodium berghei
ASSAY_INFO: Luciferase/luciferin-expressing antifolate-resistant parasites were used to infect a culture of HepG2 cells that were pre-incubated with compounds. Infected hepatocytes emit light due to the luciferase reaction. Assay results are presented as the percent inhibition of light emission compared to control. […]
Format: functional
PARTICULARS: sporozoite, HEPG2TOX_HILL_SLOPE 7.19, HEPG2TOX_R_SQUARED 0.823, PBLUC_HILL_SLOPE 10.3, PBLUC_R_SQUARED 0.181, read-out: LUCIFERASE INFECTION ASSAY - IC50
ENDPOINT: pIC50
Here pIC50 is given on a logarithmic scale as minus log10 of the concentration in mol/L.

QUERY: Request body: readout pIC50, system Plasmodium berghei, query "COc1ccc(-c2nc3c(c(=O)[nH]c(=O)n3Cc3ccccc3)n2Cc2ccccc2)cc1" . Return the value.
RESULT: 5.05

* * *

Tested on: Plasmodium berghei
ASSAY_INFO: Luciferase/luciferin-expressing antifolate-resistant parasites were used to infect a culture of HepG2 cells that were pre-incubated with compounds. Infected hepatocytes emit light due to the luciferase reaction. Assay results are presented as the percent inhibition of light emission compared to control. […]
Type: functional
PARTICULARS: sporozoite, PBLUC_HILL_SLOPE 13.5, PBLUC_R_SQUARED 0.264, read-out: LUCIFERASE INFECTION ASSAY - IC50
pIC50: −log10 of the molar value.
ENDPOINT: pIC50

QUERY: Param item = OC(COc1ccccc1F)CN1CCN(Cc2csc3ccccc23)CC1 (stereo unspecified) ; retrieve measured pIC50.
RESULT: < 5.00

* * *

Tested on: Plasmodium berghei
ASSAY_INFO: Luciferase/luciferin-expressing antifolate-resistant parasites were used to infect a culture of HepG2 cells that were pre-incubated with compounds. Infected hepatocytes emit light due to the luciferase reaction. Assay results are presented as the percent inhibition of light emission compared to control. […]
Type: functional
PARTICULARS: sporozoite, PBLUC_HILL_SLOPE 1.35, PBLUC_R_SQUARED 0.594, read-out: LUCIFERASE INFECTION ASSAY - IC50
ENDPOINT: IC50 (nM)
Provide the reading as a plain figure in nM.

QUERY: Param item = "CC(C)Nc1cc(-c2ccccc2)nc2c(-c3ccccc3)cnn12" ; retrieve measured IC50.
RESULT: 2010

* * *

System: Plasmodium berghei
ASSAY_INFO: Luciferase/luciferin-expressing antifolate-resistant parasites were used to infect a culture of HepG2 cells that were pre-incubated with compounds. Infected hepatocytes emit light due to the luciferase reaction. Assay results are presented as the percent inhibition of light emission compared to control. […]
Type: functional
PARTICULARS: sporozoite, PBLUC_HILL_SLOPE 1.19, PBLUC_R_SQUARED 0.67, read-out: LUCIFERASE INFECTION ASSAY - IC50
ENDPOINT: pIC50
Here pIC50 is given on a logarithmic scale as minus log10 of the concentration in mol/L.

QUERY: Request body: readout pIC50, system Plasmodium berghei, query "COc1cc(OC)cc(-c2cc3c(Nc4ccc5c(c4)OCO5)nccc3[nH]2)c1" . Return the value.
RESULT: 5.97

* * *

Each item that follows carries a reported IC90.
Test system: Plasmodium berghei
ASSAY_INFO: Luciferase/luciferin-expressing antifolate-resistant parasites were used to infect a culture of HepG2 cells that were pre-incubated with compounds. Infected hepatocytes emit light due to the luciferase reaction. Assay results are presented as the percent inhibition of light emission compared to control. […]
Type: functional
PARTICULARS: sporozoite, read-out: LUCIFERASE INFECTION ASSAY - IC90
Provide the reading as a plain figure in µM.

compound="Cc1c(C(=O)OC(C(=O)c2ccccc2)c2ccccc2)sc2ncn(C)c(=O)c12 (stereo not given)" target="Plasmodium berghei" endpoint=IC90 assay_value=8.68

API: the following record is the query input.
QUERY: Param item = CCn1c2ccccc2c2cc(NC(C)C(=O)N3CCNC3=O)ccc21 (stereo not given) ; retrieve measured IC90.
RESULT: 4.48

* * *

Test system: Plasmodium berghei
ASSAY_INFO: Luciferase/luciferin-expressing antifolate-resistant parasites were used to infect a culture of HepG2 cells that were pre-incubated with compounds. Infected hepatocytes emit light due to the luciferase reaction. Assay results are presented as the percent inhibition of light emission compared to control. […]
Format: functional
PARTICULARS: sporozoite, PBLUC_HILL_SLOPE 1.72, PBLUC_R_SQUARED 0.416, read-out: LUCIFERASE INFECTION ASSAY - IC50
ENDPOINT: pIC50
Here pIC50 is given on a logarithmic scale as minus log10 of the concentration in mol/L.

QUERY: Param item = "O=[N+]([O-])c1cc(/C=N/O)ccc1Oc1ccc(Cl)cc1" ; retrieve measured pIC50.
RESULT: 5.21

* * *

Tested on: Plasmodium berghei
ASSAY_INFO: Luciferase/luciferin-expressing antifolate-resistant parasites were used to infect a culture of HepG2 cells that were pre-incubated with compounds. Infected hepatocytes emit light due to the luciferase reaction. Assay results are presented as the percent inhibition of light emission compared to control. […]
Assay type: functional
PARTICULARS: sporozoite, HEPG2TOX_HILL_SLOPE 1.95, 1.49, HEPG2TOX_R_SQUARED 0.808, 0.974, PBLUC_HILL_SLOPE 11.3, 2.85, PBLUC_R_SQUARED 0.579, 0.589, read-out: LUCIFERASE INFECTION ASSAY - IC50
ENDPOINT: IC50 (µM)
Provide the reading as a plain figure in µM.

QUERY: Param item = "O=C(NCCCc1nc2ccccc2[nH]1)c1[nH]nc2ccccc12" ; retrieve measured IC50.
RESULT: 0.947

* * *

System: Plasmodium berghei
ASSAY_INFO: Luciferase/luciferin-expressing antifolate-resistant parasites were used to infect a culture of HepG2 cells that were pre-incubated with compounds. Infected hepatocytes emit light due to the luciferase reaction. Assay results are presented as the percent inhibition of light emission compared to control. […]
Type: functional
PARTICULARS: sporozoite, HEPG2TOX_HILL_SLOPE 0.365, HEPG2TOX_R_SQUARED 0.691, PBLUC_HILL_SLOPE 1.54, PBLUC_R_SQUARED 0.896, read-out: LUCIFERASE INFECTION ASSAY - IC50
ENDPOINT: IC50 (nM)
Provide the reading as a plain figure in nM.

QUERY: Param item = CC(C)Cc1ccc(C(C)c2nn3c(-c4cccnc4)nnc3s2)cc1 (stereo unspecified) ; retrieve measured IC50.
RESULT: 1310

* * *

Tested on: Plasmodium berghei
ASSAY_INFO: Luciferase/luciferin-expressing antifolate-resistant parasites were used to infect a culture of HepG2 cells that were pre-incubated with compounds. Infected hepatocytes emit light due to the luciferase reaction. Assay results are presented as the percent inhibition of light emission compared to control. […]
Format: functional
PARTICULARS: sporozoite, FFLUC_HILL_SLOPE 11.7, FFLUC_R_SQUARED 0.18, PBLUC_HILL_SLOPE 22.2, PBLUC_R_SQUARED 0.267, read-out: LUCIFERASE INFECTION ASSAY - IC50
ENDPOINT: IC50 (µM)
Provide the reading as a plain figure in µM.

QUERY: Request body: readout IC50, system Plasmodium berghei, query "Cc1ccsc1/C=N/Nc1ncc(Cl)cc1Cl" . Return the value.
RESULT: 9.19
